system: Solanum nigrum (SOLNI); assay: Pre-emergence biological efficacy, glasshouse pot test; assay type: in vivo; details: 312 h, 1,000 g/ha, evaluated after 13 days, 100=total damage, 0=no damage, read-out: Percentage damage caused to weed species, pre-emergence, SOLNI
pest or weed control at 1000 g/ha values for the molecules below.
VALUE KIND: pest or weed control at 1000 g/ha

>  <MOLECULE>
C=Cc1c(N)cc(Cl)nc1C(=O)OC

>  <VALUE KIND>
pest or weed control at 1000 g/ha

>  <MEASURED>
100%

$$$$
>  <MOLECULE>
C=Cc1c(NC2CCCC2)cc(Cl)nc1C(=O)OC

>  <VALUE KIND>
pest or weed control at 1000 g/ha

>  <MEASURED>
100%

$$$$
>  <MOLECULE>
C=Cc1c(C(=O)O)nc(Cl)c(Cl)c1N

>  <VALUE KIND>
pest or weed control at 1000 g/ha

>  <MEASURED>
100%

$$$$
>  <MOLECULE>
C=C(C)Cc1c(N)cc(Cl)nc1C(=O)OC

>  <VALUE KIND>
pest or weed control at 1000 g/ha

>  <MEASURED>
80%

$$$$
>  <MOLECULE>
C=Cc1c(C(=O)O)nc(Cl)c(F)c1N

>  <VALUE KIND>
pest or weed control at 1000 g/ha

>  <MEASURED>
100%

$$$$
>  <MOLECULE>
COC(=O)c1nc(Cl)cc(N)c1C

>  <VALUE KIND>
pest or weed control at 1000 g/ha

>  <MEASURED>
100%

$$$$
>  <MOLECULE>
C=CCc1c(N)cc(Cl)nc1C(=O)OC

>  <VALUE KIND>
pest or weed control at 1000 g/ha

>  <MEASURED>
90%

$$$$
>  <MOLECULE>
C=Cc1c(N2CCCC2)cc(Cl)nc1C(=O)OC

>  <VALUE KIND>
pest or weed control at 1000 g/ha

>  <MEASURED>
90%

$$$$
>  <MOLECULE>
C=Cc1c(C(=O)OC)nc(Cl)c(F)c1N

>  <VALUE KIND>
pest or weed control at 1000 g/ha

>  <MEASURED>
100%

$$$$
>  <MOLECULE>
COC(=O)c1nc(Cl)cc(N)c1C=C(C)C

>  <VALUE KIND>
pest or weed control at 1000 g/ha

>  <MEASURED>
100%

$$$$
>  <MOLECULE>
C=Cc1c(NCC(C)O)cc(Cl)nc1C(=O)OC (stereo not drawn)

>  <VALUE KIND>
pest or weed control at 1000 g/ha

>  <MEASURED>
100%

$$$$
>  <MOLECULE>
COC(=O)c1nc(Cl)cc(N)c1-c1ccc(Cl)cc1

>  <VALUE KIND>
pest or weed control at 1000 g/ha

>  <MEASURED>
80%

$$$$
>  <MOLECULE>
COC(=O)c1nc(Cl)cc(N)c1C(F)(F)F

>  <VALUE KIND>
pest or weed control at 1000 g/ha

>  <MEASURED>
80%

$$$$
>  <MOLECULE>
C/C=C\c1c(N)cc(Cl)nc1C(=O)OC [2-5 (Z isomer)]

>  <VALUE KIND>
pest or weed control at 1000 g/ha

>  <MEASURED>
100%

$$$$
>  <MOLECULE>
C=Cc1c(NC2CC2)cc(Cl)nc1C(=O)OC

>  <VALUE KIND>
pest or weed control at 1000 g/ha

>  <MEASURED>
100%

$$$$
>  <MOLECULE>
C=Cc1c(N)cc(Cl)nc1C(=O)O

>  <VALUE KIND>
pest or weed control at 1000 g/ha

>  <MEASURED>
100%

$$$$
>  <MOLECULE>
C=Cc1c(C(=O)OC)nc(Cl)c(Cl)c1N

>  <VALUE KIND>
pest or weed control at 1000 g/ha

>  <MEASURED>
100%

$$$$
>  <MOLECULE>
C/C=C/c1c(N)cc(Cl)nc1C(=O)OC [2-5 (E isomer)]

>  <VALUE KIND>
pest or weed control at 1000 g/ha

>  <MEASURED>
100%

$$$$
